assay_procedure: everolimus arterial tissue concentration in and next to the stented vessel
Format: in vivo, swine
conditions: swine, arterial tissue, stented region, 3209 μg, swine; 8.0×28 mm stent, group 3, 3209 μg; 28 days; read-out: drug concentration in tissue of stented region
experimental_endpoint: concentration at 28 days (ng/g)
Your answer should be a plain number; it is taken to be in ng/g.

*Q* Hello, please tell me recorded concentration at 28 days for this one: CO[C@H]1C[C@@H]2CC[C@@H](C)[C@@](O)(O2)C(=O)C(=O)N2CCCC[C@H]2C(=O)O[C@H]([C@H](C)C[C@@H]2CC[C@@H](OCCO)[C@H](OC)C2)CC(=O)[C@H](C)/C=C(\C)[C@@H](O)[C@@H](OC)C(=O)[C@H](C)C[C@H](C)/C=C/C=C/C=C/1C [everolimus, 40-O-(2-hydroxyethyl)-rapamycin]
*A* 13200

====

assay_procedure: everolimus arterial tissue concentration in and next to the stented vessel
Type: in vivo, swine
conditions: swine, arterial tissue of stented region, 1070 μg, swine; 8.0×28 mm stent, group 2, 1070 μg Lot #2; 56 days; read-out: drug concentration in tissue of stented region
experimental_endpoint: concentration at 56 days
Hi, when you answer, please include the unit after the number. Thanks!

*Q* Tell me concentration at 56 days reported for CO[C@H]1C[C@@H]2CC[C@@H](C)[C@@](O)(O2)C(=O)C(=O)N2CCCC[C@H]2C(=O)O[C@H]([C@H](C)C[C@@H]2CC[C@@H](OCCO)[C@H](OC)C2)CC(=O)[C@H](C)/C=C(\C)[C@@H](O)[C@@H](OC)C(=O)[C@H](C)C[C@H](C)/C=C/C=C/C=C/1C [everolimus, 40-O-(2-hydroxyethyl)-rapamycin]
*A* 2190 ng/g

====

assay_procedure: everolimus arterial tissue concentration in and next to the stented vessel
Assay type: in vivo, swine
conditions: swine, 3209 μg, swine; 8.0×28 mm stent, group 3, 3209 μg; 28 days; read-out: drug concentration in tissue distal to stented region
experimental_endpoint: concentration at 28 days
The reply should read as a number followed by its unit.

*Q* Give me measured concentration at 28 days, please, for this compound: CO[C@H]1C[C@@H]2CC[C@@H](C)[C@@](O)(O2)C(=O)C(=O)N2CCCC[C@H]2C(=O)O[C@H]([C@H](C)C[C@@H]2CC[C@@H](OCCO)[C@H](OC)C2)CC(=O)[C@H](C)/C=C(\C)[C@@H](O)[C@@H](OC)C(=O)[C@H](C)C[C@H](C)/C=C/C=C/C=C/1C [everolimus, 40-O-(2-hydroxyethyl)-rapamycin]
*A* 414 ng/g

====

assay_procedure: everolimus arterial tissue concentration in and next to the stented vessel
Assay type: in vivo, swine
conditions: swine, arterial tissue of the stented region, other: drug-eluting stent implanted in iliofemoral arteries, 1070 μg, swine; 10.0×28 mm stent, 1070 μg; 7 days; read-out: drug concentration in tissue of stented region
experimental_endpoint: concentration at 7 days (ng/g)
Only the number, expressed in ng/g, is required.

*Q* Item CO[C@H]1C[C@@H]2CC[C@@H](C)[C@@](O)(O2)C(=O)C(=O)N2CCCC[C@H]2C(=O)O[C@H]([C@H](C)C[C@@H]2CC[C@@H](OCCO)[C@H](OC)C2)CC(=O)[C@H](C)/C=C(\C)[C@@H](O)[C@@H](OC)C(=O)[C@H](C)C[C@H](C)/C=C/C=C/C=C/1C [everolimus, 40-O-(2-hydroxyethyl)-rapamycin] : provide concentration at 7 days
*A* 5100
